Entry source: patent EP4818205A1

System Name: T1, recombinant protein His-fib-mfTL1A (Macaca fascicularis)
T1 construct: also called monkey TL1A; Macaca fascicularis TL1A
T1 chain: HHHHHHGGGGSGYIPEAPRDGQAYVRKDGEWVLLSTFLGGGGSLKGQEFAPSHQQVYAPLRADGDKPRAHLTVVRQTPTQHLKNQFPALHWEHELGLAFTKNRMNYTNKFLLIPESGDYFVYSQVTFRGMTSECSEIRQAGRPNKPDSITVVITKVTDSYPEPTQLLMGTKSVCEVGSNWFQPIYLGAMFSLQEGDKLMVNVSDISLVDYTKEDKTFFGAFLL
Experiment Summary: SPR, Biacore T200; antibody captured by anti-human IgG (Fc), TL1A as analyte; 1:1 model
pKd: −log10 of the molar value.
Test Readout: pKd

{"columns": ["Binder", "Value Measured"],
 "data": [
  ["mouse anti-TL1A monoclonal antibody S7B11 (antibody, V domains shown) VH: QVKLQQSGGELVRPGTSVKISCKASGYAFTNYWLGWIKQRPGHGLEWIGDIHPGRGNIYYNEKFKGKATLTADKSSSTAYMQLSSLTSEDSAVYFCAEGYDTFDYWGQGTTLTVSS VL: DIVMTQSPSYLAASPGETITINCRASKSISKYLAWYQEKPGKTNKLLIYSGSTLQSGIPSRFSGSGSGTDFTLTISSLEPEDFAMYYCQQHNEYPYTFGGGTKLEIKR", 10.28]
]}
